So I've got a bunch of molecules here, and I need their Ratio Ki values.
Assay: Selectivity ratio of Ki for monocloned delta opioid receptor to Ki for monocloned mu opioid receptor
Numbers only.

O=C(N[C@H]1CC[C@@]2(O)[C@H]3Cc4ccc(O)c5c4[C@@]2(CCN3CC2CC2)[C@H]1O5)c1cccnc1: 265
O=C(N[C@@H]1CC[C@@]2(O)[C@H]3Cc4ccc(O)c5c4[C@@]2(CCN3CC2CC2)[C@H]1O5)c1cccnc1: 1410
O=C(N[C@@H]1CC[C@@]2(O)[C@H]3Cc4ccc(O)c5c4[C@@]2(CCN3CC2CC2)[C@H]1O5)c1ccccn1: 37

Lookup: Please look up its Ratio Ki: `O=C(N[C@@H]1CC[C@@]2(O)[C@H]3Cc4ccc(O)c5c4[C@@]2(CCN3CC2CC2)[C@H]1O5)c1cc2ccccc2cn1`
Found: 156

* * *

System: Mus musculus
Assay: Inhibition of morphine-induced antinociception in sc dosed Swiss Webster mouse assessed as dose producing 50% antagonism of morphine response preincubated for 5 mins before the addition of morphine assessed after 20 mins by warm water tail immersion test
Assay type: functional
Provide the reported Activity of each item.
Give bare numbers, in mg/kg.

For orientation, consider the following solved cases.
O=C(N[C@@H]1CC[C@@]2(O)[C@H]3Cc4ccc(O)c5c4[C@@]2(CCN3CC2CC2)[C@H]1O5)c1ccccn1: 0.33
O=C(N[C@@H]1CC[C@@]2(O)[C@H]3Cc4ccc(O)c5c4[C@@]2(CCN3CC2CC2)[C@H]1O5)c1cnc2ccccc2c1: 42.55
O=C(N[C@H]1CC[C@@]2(O)[C@H]3Cc4ccc(O)c5c4[C@@]2(CCN3CC2CC2)[C@H]1O5)c1cnc2ccccc2c1: 4.45
O=C(N[C@H]1CC[C@@]2(O)[C@H]3Cc4ccc(O)c5c4[C@@]2(CCN3CC2CC2)[C@H]1O5)c1cccnc1: 36.77

Hello, I would appreciate it if you could give Activity for each entry below.
1. O=C(N[C@H]1CC[C@@]2(O)[C@H]3Cc4ccc(O)c5c4[C@@]2(CCN3CC2CC2)[C@H]1O5)c1ccccn1
2. O=C(N[C@@H]1CC[C@@]2(O)[C@H]3Cc4ccc(O)c5c4[C@@]2(CCN3CC2CC2)[C@H]1O5)c1cccnc1

Found:
1: 0.89; 2: 1.38

* * *

Biological target: Mu-type opioid receptor (Homo sapiens)
Sequence (P35372 whole entry): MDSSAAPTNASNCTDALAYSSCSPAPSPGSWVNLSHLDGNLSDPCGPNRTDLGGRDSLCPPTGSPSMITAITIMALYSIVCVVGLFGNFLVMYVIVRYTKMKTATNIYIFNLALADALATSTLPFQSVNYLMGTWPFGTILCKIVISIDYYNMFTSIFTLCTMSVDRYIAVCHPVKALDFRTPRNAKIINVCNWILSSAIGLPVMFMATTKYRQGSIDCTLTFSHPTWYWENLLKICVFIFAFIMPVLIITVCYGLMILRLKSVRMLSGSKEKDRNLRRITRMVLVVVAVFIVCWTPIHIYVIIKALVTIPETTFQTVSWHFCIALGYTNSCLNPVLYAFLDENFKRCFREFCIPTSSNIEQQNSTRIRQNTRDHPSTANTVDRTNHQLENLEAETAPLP
Assay: Activity at monocloned mu opioid receptor expressed in CHO cells by [35S]GTPgammaS binding assay
Format: functional, cell-based
Settings: read-out: EC50
pEC50: −log10 of the molar value.
Class key for pEC50 values: low = under 8, middle = from 8 up to 9, high = 9 and over

Recorded results for 3 compounds are shown here.
O=C(N[C@H]1CC[C@@]2(O)[C@H]3Cc4ccc(O)c5c4[C@@]2(CCN3CC2CC2)[C@H]1O5)c1cc2ccccc2cn1: middle
O=C(N[C@H]1CC[C@@]2(O)[C@H]3Cc4ccc(O)c5c4[C@@]2(CCN3CC2CC2)[C@H]1O5)c1cnc2ccccc2c1: middle
O=C(N[C@@H]1CC[C@@]2(O)[C@H]3Cc4ccc(O)c5c4[C@@]2(CCN3CC2CC2)[C@H]1O5)c1cc2ccccc2cn1: high

Lookup: Which band does `O=C(N[C@@H]1CC[C@@]2(O)[C@H]3Cc4ccc(O)c5c4[C@@]2(CCN3CC2CC2)[C@H]1O5)c1ccccn1` fall in?
Found: low

Lookup: Also `O=C(N[C@H]1CC[C@@]2(O)[C@H]3Cc4ccc(O)c5c4[C@@]2(CCN3CC2CC2)[C@H]1O5)c1ccccn1` ?
Found: low

Lookup: Same lookup for `O=C(N[C@@H]1CC[C@@]2(O)[C@H]3Cc4ccc(O)c5c4[C@@]2(CCN3CC2CC2)[C@H]1O5)c1cccnc1` , please.
Found: high

Lookup: Now consider `O=C(N[C@H]1CC[C@@]2(O)[C@H]3Cc4ccc(O)c5c4[C@@]2(CCN3CC2CC2)[C@H]1O5)c1ccc2ccccc2n1` and answer again.
Found: high
